- EXPERIMENT_DESCRIPTION: qHTS for inhibitors of Vif-A3G interactions: Cherry picks; note: nearly all actives have a fitted effect of over 80% in size
- STUDY_CONDITIONS: HeLa A3G-eYFP + Vif (tagged APOBEC3G with the HIV-1 protein that degrades it), 24 h; eYFP fluorescence increase; series mostly up to 36.9 µM
Among all 2,100 compounds or so, about 650 (31%) were called active. Another 16% or so got no clear call; they are omitted. Calls come from the whole dose curve; as a rule, active = well fitted inhibition curve with a large enough effect; inconclusive = small, poorly fitted or top-dose-only effect; inactive = flat fitted curve, though single readings scatter. The list shows a part of the results.
Possible outcomes: active, inactive

{"MOLECULE": "CCNC(=S)N/N=C(\\C)c1ccc(N2CCOCC2)cc1", "DISCRETE_LABEL": "inactive"}
{"MOLECULE": "COc1ccc(CCNC(=O)CC2(CC3=NS(=O)(=O)c4ccccc4N3)CCCC2)cc1OC", "DISCRETE_LABEL": "inactive"}
{"MOLECULE": "CN1C(=O)N(C)c2ccc(C=O)c3cccc1c23", "DISCRETE_LABEL": "inactive"}
{"MOLECULE": "Cc1ccc2nc(-c3ccccn3)c(NC3CCCC3)n2c1", "DISCRETE_LABEL": "inactive"}
{"MOLECULE": "c1ccc(Nc2nc(-c3ccccn3)cs2)cc1", "DISCRETE_LABEL": "inactive"}
{"MOLECULE": "c1ccc2c(CCc3c[nH]c4ccccc34)ccnc2c1", "DISCRETE_LABEL": "active"}
{"MOLECULE": "O=Cc1sc(Nc2ccccc2)nc1Cl", "DISCRETE_LABEL": "active"}
{"MOLECULE": "N#Cc1ccc(/C=C\\c2nccc3c2[nH]c2ccccc23)cc1", "DISCRETE_LABEL": "active"}
{"MOLECULE": "COc1ccc(-c2cc3ccccc3oc2=O)cc1NC(=S)NC(=O)c1ccc2c(c1)OCCO2", "DISCRETE_LABEL": "inactive"}
{"MOLECULE": "CCOC(=O)c1cc(-c2ccccc2C)n(CC2CC(c3ccc(OC)cc3)=NO2)n1 (stereo not given)", "DISCRETE_LABEL": "inactive"}
{"MOLECULE": "CC(NC(=O)/C(C#N)=C/c1ccc([N+](=O)[O-])o1)c1ccccc1 (stereo not given)", "DISCRETE_LABEL": "active"}
{"MOLECULE": "Nc1nn(-c2ccccc2)c(N)c1N=Nc1ccccc1", "DISCRETE_LABEL": "inactive"}
{"MOLECULE": "CC(=O)Nc1ccc(C2=CC(=O)C[C@H](c3ccc(Cl)cc3)C2)cc1", "DISCRETE_LABEL": "active"}
{"MOLECULE": "Cc1ccc(Nc2nc(Cl)c(C=O)s2)cc1Cl", "DISCRETE_LABEL": "active"}
{"MOLECULE": "CC1CCCCC1NC(=O)/C(C#N)=C/C=C/c1ccccc1[N+](=O)[O-] (stereo not given)", "DISCRETE_LABEL": "inactive"}

Data provenance: PubChem BioAssay AID651812
